Quick reference for log2 fold change of degron read counts among some sequences
- TARGET_OF_ASSAY: T1, CRBN, Q96SW2;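 note: pooled lentiviral library of zinc finger degron-EGFP fusions in mCherry-positive Jurkat cells, FACS-sorted after compound exposure, with degron abundance counted by next-generation sequencing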
- T1 chain: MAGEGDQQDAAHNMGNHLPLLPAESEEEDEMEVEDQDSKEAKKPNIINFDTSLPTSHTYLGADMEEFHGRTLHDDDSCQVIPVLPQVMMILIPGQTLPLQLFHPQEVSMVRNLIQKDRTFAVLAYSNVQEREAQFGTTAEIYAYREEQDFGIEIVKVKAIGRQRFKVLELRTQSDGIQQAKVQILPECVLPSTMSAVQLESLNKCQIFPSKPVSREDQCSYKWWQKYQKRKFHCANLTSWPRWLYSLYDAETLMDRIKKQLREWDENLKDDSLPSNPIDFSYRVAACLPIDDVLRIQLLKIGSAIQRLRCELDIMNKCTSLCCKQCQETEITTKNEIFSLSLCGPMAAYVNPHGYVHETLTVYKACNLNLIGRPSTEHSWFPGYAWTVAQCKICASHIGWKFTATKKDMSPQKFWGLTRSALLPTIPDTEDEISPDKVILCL
- MEASUREMENT_DESCRIPTION: log2 fold change of degron read counts, EGFP-low vs EGFP+ sorted cells (limma voom), compound-induced degradation; higher = more compound-induced degradation of the degron-EGFP fusion; degrons are variants of IKZF1/3 zinc finger 2; compound dose not given here
- CONDITION_PARAMETERS: Jurkat; 18 h; compound: compound 22 (5-morpholino-thalidomide)
Over roughly 8,300 sequences, “log2 fold change of degron read counts, EGFP-low vs EGFP+ sorted cells (limma voom), compound-induced degradation” has its median near -1.1; the highest 2% begin near 3.2. The list comes from a sample in which the highest values are over-represented; it also holds close analogues and randomly drawn sequences.
EXPERIMENTAL_ENDPOINT: log2 fold change of degron read counts

{"columns": ["RESIDUE_CODES", "EXPERIMENTAL_ENDPOINT", "VALUE"],
 "data": [
  ["FVCPQCGAIFTQKGNLLRHIKL [46F_47V_49P_50Q_52G_53A_54I_55F_67L_, Q9UKT9]", "log2 fold change of degron read counts", -1.63],
  ["FRCDICGARFTQKGNLLRHIKL [46F_47R_49D_50I_52G_53A_54R_55F_67L_, Q9UKT9]", "log2 fold change of degron read counts", -2.03],
  ["FNCPVCGATFTQKGNLLRHIKL [46F_47N_49P_50V_52G_53A_54T_55F_67L_, Q9UKT9]", "log2 fold change of degron read counts", -0.0199],
  ["FECPVCGATFTQKGNLLRHIKL [46F_47E_49P_50V_52G_53A_54T_55F_67L_, Q9UKT9]", "log2 fold change of degron read counts", -0.774],
  ["FCCPVCGATFTQKGNLLRHIKL [46F_47C_49P_50V_52G_53A_54T_55F_67L_, Q9UKT9]", "log2 fold change of degron read counts", 1.86],
  ["FKCPVCGATFTQKGNLLRHIKL [46F_47K_49P_50V_52G_53A_54T_55F_67L_, Q9UKT9]", "log2 fold change of degron read counts", -2.57],
  ["FFCPVCGATFTQKGNLLRHIKL [46F_47F_49P_50V_52G_53A_54T_55F_67L_, Q9UKT9]", "log2 fold change of degron read counts", 3.54],
  ["FYCDICGARFTQKGNLLRHIKL [46F_47Y_49D_50I_52G_53A_54R_55F_67L_, Q9UKT9]", "log2 fold change of degron read counts", 3.35],
  ["FQCDICGARFTQKGNLLRHIKL [46F_47Q_49D_50I_52G_53A_54R_55F_67L_, Q9UKT9]", "log2 fold change of degron read counts", 1.3],
  ["FMCPVCGATFTQKGNLLRHIKL [46F_47M_49P_50V_52G_53A_54T_55F_67L_, Q9UKT9]", "log2 fold change of degron read counts", 0.0816],
  ["FMCNQCGAKFTQKGNLLRHIKL [46F_47M_49N_50Q_52G_53A_54K_55F_67L_, Q9UKT9]", "log2 fold change of degron read counts", -2.47],
  ["FMCDVCGACFTQKGNLLRHIKL [46F_47M_49D_50V_52G_53A_54C_55F_67L_, Q9UKT9]", "log2 fold change of degron read counts", -1.41],
  ["FDCPVCGATFTQKGNLLRHIKL [46F_47D_49P_50V_52G_53A_54T_55F_67L_, Q9UKT9]", "log2 fold change of degron read counts", -0.459],
  ["FDCDICGARFTQKGNLLRHIKL [46F_47D_49D_50I_52G_53A_54R_55F_67L_, Q9UKT9]", "log2 fold change of degron read counts", 0.0154],
  ["FWCPVCGATFTQKGNLLRHIKL [46F_47W_49P_50V_52G_53A_54T_55F_67L_, Q9UKT9]", "log2 fold change of degron read counts", 3.45]
]}
